- PROCEDURE DETAILS: intrinsic fluorescence of compounds, yeast control strain – S. cerevisiae AD/pABC3, flow cytometry, Cherry Pick1 set, artefact control for antifungal efflux pump inhibitor project, confirmation (AID 588517);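 also: unstained yeast with no Nile Red so the signal is compound autofluorescence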
- SETTINGS: S. cerevisiae AD/pABC3, compound fluorescence, at 10 µM
Screen size: about 1,700 compounds; about 65 (4%) were called active.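 The calls were made as follows: active = fluorescence ratio to DMSO above its plate's cutoff, the plate mean ratio plus 5 SD (cut at about 210% in these data); inactive = the rest.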 Not all results are given here.
Entry note: the call must match one of label 1 = active, label 0 = inactive

Worked examples, 8 compounds total:
COc1ccc(C(=O)NC(=S)Nc2ccc(N3CCCC3)cc2)cc1OC :: label 0
COc1ccccc1NC(=O)C1CCCN1S(=O)(=O)c1ccc(Cl)cc1 (stereo not drawn) :: label 0
CC(C)C(=O)N1CCC2(CC1)Oc1ccc(F)cc1C(=O)C21CC(c2ccccc2)=NO1 (stereo not drawn) :: label 0
CN1CCN(S(=O)(=O)c2ccc(NC(=S)NC(=O)C3CC3)cc2)CC1 :: label 0
CCCCOc1ccc(C(=O)NCC(=O)OCC(=O)c2c(N)n(C)c(=O)n(C)c2=O)cc1 :: label 0
O=C(Cc1ccccc1)NCC1OCCc2ccccc21 (stereo not drawn) :: label 0
Cc1oc2cc3oc(=O)ccc3cc2c1C :: label 0
CC[n+]1cc(C)ccc1/C=C/c1ccc(N(C)C)cc1 :: label 1

Ask: What was the test verdict on C/C(N)=C(/C#N)C(=O)COC(=O)c1cc(-c2cccc(Br)c2)nc2ccccc12 ?
Result: label 0

Ask: Moving on to the next compound: COc1ccc2[nH]c3c(C)c4cc[n+](C)cc4c(C)c3c2c1
Result: label 0

Ask: Moving on to the next compound: COc1ccc(-c2sc3ccccc3c2-c2ccc(OCCN3CCOCC3)cc2)cc1
Result: label 0

Ask: Moving on to the next compound: Cc1cc(C)cc(NC(=O)C(OC(=O)c2ccc(O)cc2)c2ccccc2)c1 (stereo not drawn)
Result: label 0

Ask: Moving on to the next compound: Cc1ccc(Cn2c(C)nc3c(c2=O)c2nc4ccccc4nc2n3Cc2ccco2)cc1
Result: label 0

Ask: Moving on to the next compound: Cc1cccc(NC(=O)COc2ccccc2C)n1
Result: label 0

Ask: Moving on to the next compound: C[n+]1ccc(/C=C/c2c[nH]c3ccccc23)cc1
Result: label 1

Ask: Moving on to the next compound: O=C(Cc1ccc(Br)cc1)N1CCN(c2ccccn2)CC1
Result: label 0

Ask: Moving on to the next compound: CCCc1nnc(SCC(=O)Nc2ccc(C(=O)OCC)cc2)o1
Result: label 0

Ask: Moving on to the next compound: CC12CCC(C(=O)N(c3cccc(Cl)c3)C1=O)C2(C)C (stereo not drawn)
Result: label 0

Ask: Moving on to the next compound: CCNc1c(NS(=O)(=O)c2ccc(C3CCCCC3)cc2)c(=O)oc2ccccc12
Result: label 0

Ask: Moving on to the next compound: CCOc1ccc2nc(Cl)c(C3CC(c4ccccc4)=NN3C(=O)c3cccs3)cc2c1 (stereo not drawn)
Result: label 0

Ask: Moving on to the next compound: Cc1nn(C)cc1N1C(=O)c2cccc3c(N)ccc(c23)C1=O
Result: label 0

Ask: Moving on to the next compound: CCNC(=O)c1c(O)c2cccc3c2n(c1=O)CC3
Result: label 0

Ask: Moving on to the next compound: O=C(/C=C/c1c(Cl)cccc1Cl)NCc1ccccc1
Result: label 0
